The reported numbers originate from ChEMBL document CHEMBL1629431.

# Test system: MOLT-4
# experimentalProtocol: Growth inhibition of human MOLT4 cells at 10 uM after 48 hrs by coulter counter method
# Format: functional
# testParameters: MOLT-4, 48 h, read-out: GI
observable: inhibition of growth at 10 µM (%)
Output spec: scalar in %, unitless text.

Ask: Quick one: inhibition of growth at 10 µM of NS(=O)(=O)c1ccc(Nc2nc3ccccc3c(=O)n2-c2ccc(Cl)cc2)cc1 ?
Reply: 38.1

Ask: Subsequent entry: COc1ccc(C(=O)CSc2nc3ccccc3c(=O)n2-c2ccc(OC)cc2)cc1
Reply: 49.4

Ask: Subsequent entry: COc1ccc(-c2nnc(Nc3nc4ccccc4c(=O)n3-c3ccccc3)s2)cc1
Reply: 30

Ask: Subsequent entry: COc1ccc(C(=O)CSc2nc3ccccc3c(=O)n2-c2ccc(Cl)cc2)cc1
Reply: 30

Ask: Subsequent entry: CCn1c(SC)nc2ccccc2c1=O
Reply: 30

Ask: Subsequent entry: O=c1c2ccccc2nc(Nc2nnc(-c3ccc(Cl)cc3)s2)n1-c1ccccc1
Reply: 30

Ask: Subsequent entry: O=C1Nc2ccc(C(=O)Nc3ccccn3)cc2C(c2ccc(Cl)cc2)N1 (stereo not given)
Reply: 33.9

Ask: Subsequent entry: CCn1c(SCC(=O)c2ccc(OC)cc2)nc2ccccc2c1=O
Reply: 30

Ask: Subsequent entry: COc1ccc(-n2c(SCC(=O)c3ccc(Cl)cc3)nc3ccccc3c2=O)cc1
Reply: 30

Ask: Subsequent entry: COc1ccc(C2NC(=O)Nc3ccc(CNc4ccccn4)cc32)cc1 (stereo not given)
Reply: 30

Ask: Subsequent entry: COc1ccc(-n2c(SC)nc3ccccc3c2=O)cc1
Reply: 30

Ask: Subsequent entry: O=c1c2ccccc2nc(Nc2cc(O)nc(S)n2)n1-c1ccc(Cl)cc1
Reply: 30.8

Ask: Subsequent entry: COc1ccc(C2NC(=O)Nc3ccc(C(=O)Nc4ccccn4)cc32)cc1 (stereo not given)
Reply: 30

Ask: Subsequent entry: O=C(CSc1nc2ccccc2c(=O)n1-c1ccc(Cl)cc1)c1ccc(Cl)cc1
Reply: 30

Ask: Subsequent entry: CN(C)c1ccc(-c2nnc(Nc3nc4ccccc4c(=O)n3-c3ccccc3)s2)cc1
Reply: 34.6

Ask: Subsequent entry: CSc1nc2ccccc2c(=O)n1-c1ccc(Cl)cc1
Reply: 31.4

Ask: Subsequent entry: O=c1c2ccccc2nc(-n2ccnc2)n1-c1ccc(Cl)cc1
Reply: 47.7

Ask: Subsequent entry: O=c1nc(Nc2nc3ccccc3c(=O)n2-c2ccc(Cl)cc2)cc(O)[nH]1
Reply: 34.6

Ask: Subsequent entry: COc1ccc(-n2c(Nc3ccc(S(N)(=O)=O)cc3)nc3ccccc3c2=O)cc1
Reply: 30

Ask: Subsequent entry: O=c1c2ccccc2nc(-n2ccnc2)n1-c1ccccc1
Reply: 30

---

# System: SK-OV-3
# experimentalProtocol: Growth inhibition of human SKOV3 cells at 10 uM after 48 hrs by coulter counter method
# Type: functional
# testParameters: SK-OV-3, 48 h, read-out: GI
observable: inhibition of growth at 10 µM (%)
Output spec: scalar in %, unitless text.

Ask: // fetch SK-OV-3 inhibition of growth at 10 µM for COc1ccc(C2NC(=O)Nc3ccc(C(=O)Nc4ccccn4)cc32)cc1 (stereo not drawn)
Reply: 30

Ask: Subsequent entry: CCn1c(SCC(=O)c2ccc(OC)cc2)nc2ccccc2c1=O
Reply: 30

Ask: Subsequent entry: COc1ccc(-c2nnc(Nc3nc4ccccc4c(=O)n3-c3ccccc3)s2)cc1
Reply: 30
